Cited source for all entries: the RNAGym collection of RNA variant scans (doi:10.1126/science.aae0568)

B1: tRNA (parent)
chain: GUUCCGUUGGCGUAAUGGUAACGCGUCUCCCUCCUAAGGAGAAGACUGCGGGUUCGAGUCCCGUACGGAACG

Variants of: B1
TEST_DETAILS: yeast fitness relative to wild type (ratio to wild type); higher = fitter; tRNA-Arg(CCU), competitive growth, 37 C, YPD
Variants at the floor of the assay were thinned out.
Quick reference: yeast fitness of the listed items.
QUANTITY_NAME: yeast fitness

| VARIANT_DESCRIPTOR | RESULT |
| --- | --- |
| C22A A40G C60G A70G | ≤ 0.5 |
| A21G C33G G38A A69C | ≤ 0.5 |
| U28A A40U C61A G68A | ≤ 0.5 |
| C5A C30U G52A | ≤ 0.5 |
| A15U G38C G39A A43C G48A | ≤ 0.5 |
| C11A A15G C22G C61U | ≤ 0.5 |
| G17C C22G C24A C62A C66U | ≤ 0.5 |
| C5U U16G A20C A21G C30U | ≤ 0.5 |
| C22A U26A C29G C34G G50C U64C | ≤ 0.5 |
| C24G A57C C61U | ≤ 0.5 |
| U3C U13C U19A C22U G68C | ≤ 0.5 |
| C34A G41A C55G C66U | ≤ 0.5 |
| U19C G25C G51C C60U A69U | ≤ 0.5 |
| C24A U26A C55A C66U | ≤ 0.5 |
| A15G U47C G68C | ≤ 0.5 |
| U16A A42U | 0.907 |
| U13G C61A G67A | ≤ 0.5 |
| C11U C31G A70U | 0.598 |
| C4G C31G G38U | ≤ 0.5 |
| G10A C27U C33U A43U U54C G68C | ≤ 0.5 |
| G44A C49G A65U | 0.547 |
| C27U A65G | 0.975 |
| G52A C55G A57U | ≤ 0.5 |
| A21C C46G C49G G56A | 0.528 |
| G9A A43C | 1.07 |
| U26A G39U A45C | ≤ 0.5 |
| G18C A21U U26C G51C | 0.739 |
| U3A G41C G63C A65U | ≤ 0.5 |
| C5U G68C A69U | ≤ 0.5 |
| U8A C66A | 0.568 |
| C30G A70U | 0.58 |
| A21G C27G | 0.562 |
| A42C A43U G67C | ≤ 0.5 |
| G9C A21G A42G | ≤ 0.5 |
